targetOrSystem: human HSV DNA polymerase UL30 (Human herpesvirus 1 (strain 17) (HHV-1) (Human herpes simplex virus 1))
protocol: biochemical
conditionContext: 625 pM HSV polymerase, 20 minutes at room temperature; read-out: HSV-polymerase Biochemical IC50
Rule: IC50 below 200 nM gives criterion met, anything at or above gives criterion not met.

Use these answered entries as a reference point.
>>> labelclass("COc1cccnc1NS(=O)(=O)C1(CN2CCc3c(C(=O)NCc4ccc(C#N)cc4)nn(C)c3C2=O)CC1")
"criterion not met"
>>> labelclass("Cn1nc(C(=O)NCc2ccc(Cl)cc2)c2c1C(=O)N(CC1(S(=O)(=O)N3CC(O)C3)CC1)CC2")
"criterion met"
>>> labelclass("N#Cc1ccc(CNC(=O)c2n[nH]c3c2CCN(CC2(S(=O)(=O)C4CC4)CC2)C3=O)cc1")
"criterion met"
>>> labelclass("Cn1nc(C(=O)NCc2ccc(Cl)s2)c2c1C(=O)N(CC1(S(=O)(=O)C3CC3)CC1)CC2")
"criterion not met"
>>> labelclass("Cn1nc(C(=O)NCc2ccc(C#N)cc2)c2c1C(=O)N(CC1(S(=O)(=O)N3CCC(C)(O)C3)CC1)CC2 (single isomer, unassigned) [Example 130]")
"criterion met"
>>> labelclass("CC1(S(=O)(=O)C2(CN3CCc4c(C(=O)NCc5ccc(Cl)cc5)nn(CCOCCN)c4C3=O)CC2)CC1")
"criterion met"

QUERY: A record lists Cc1cccnc1NS(=O)(=O)C1(CN2CCc3c(C(=O)NCc4ccc(C#N)cc4)nn(C)c3C2=O)CC1 . Is its IC50 below 200 nM?
RESULT: criterion met
